A collection of binders and their measured P.E. binding ELISA OD
# tgt: T1, human IL-2Rβ (human, UniProt P14784 27-240, limits assumed)
# T1 construct: recombinant protein, coated or immobilised; also called hu IL-2R; IL-2R beta
# T1 sequence: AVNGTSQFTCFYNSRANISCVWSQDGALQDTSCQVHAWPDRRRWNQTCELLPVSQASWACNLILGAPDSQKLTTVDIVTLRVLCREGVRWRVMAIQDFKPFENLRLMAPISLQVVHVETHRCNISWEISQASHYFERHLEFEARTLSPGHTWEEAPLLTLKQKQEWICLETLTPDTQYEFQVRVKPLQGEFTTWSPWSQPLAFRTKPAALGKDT
# experimental_details: P.E. ELISA, coated protein
Don't forget the unit after the number, please.

{"binder": "FJ1427 P035MP02H05 (VHH, soluble VHH in periplasmic extract; also called clone nr) VHH: EVQLVESGGGSVQTGGSLRLSCVVSGSHFISDVMGWYRQVPGKQRELVADMADGGSAKYGDSVKGRFTILRDSVKNTVTLQMSSLNPEDTGVYYCKAGLWITGRHSDYWGQGTQVTVTS", "result": "0.192 OD450 nm"}

With those in mind, consider the next binder.
Need P.E. binding ELISA OD of FJ1427_P035MP02G04 (VHH, soluble VHH in periplasmic extract; also called clone nr) VHH: QVQLVESGGGLVQAGGSLRLSCAASGSQFINDVMGWYRQVPGKQRELVADMDDTGSTKYADSVKGRFTILRDSVKNTAYLQMSNLKPEDTGVYYCKAGLWIKGRHFDYWGQGTQVTVSS , thanks.
0.549 OD450 nm
